The reported measurements were obtained from ChEMBL document CHEMBL1136629.

# TARGET OR TEST SYSTEM: Peroxisome proliferator-activated receptor alpha (Homo sapiens, UniProt Q07869)
# Sequence (Q07869 whole entry): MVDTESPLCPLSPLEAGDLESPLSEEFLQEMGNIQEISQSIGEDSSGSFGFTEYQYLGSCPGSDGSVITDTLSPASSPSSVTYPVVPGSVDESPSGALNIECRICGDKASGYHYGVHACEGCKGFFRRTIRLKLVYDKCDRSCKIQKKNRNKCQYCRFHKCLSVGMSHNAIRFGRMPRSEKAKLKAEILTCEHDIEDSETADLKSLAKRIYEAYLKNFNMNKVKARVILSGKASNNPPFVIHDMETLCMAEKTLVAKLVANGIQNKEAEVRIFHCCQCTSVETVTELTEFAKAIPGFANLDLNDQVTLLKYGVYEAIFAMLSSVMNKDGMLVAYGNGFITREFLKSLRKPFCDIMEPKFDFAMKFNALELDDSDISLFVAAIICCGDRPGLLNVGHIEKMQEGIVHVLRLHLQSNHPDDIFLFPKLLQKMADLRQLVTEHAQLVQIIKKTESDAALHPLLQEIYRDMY
# TEST DETAILS: Agonistic activity was determined in COS1 cells transfected with GAL 4-PPAR alpha receptor
pEC50: −log10 of the molar value.
READOUT TYPE: pEC50

Look over these answered cases.
CCCc1c(OCCCSc2ccc(CC(=O)O)cc2Cl)ccc2c(-c3ccccc3)noc12 ... 8.52
CCCc1c(OCCCOc2ccc(CCCC(=O)O)cc2)ccc2c(-c3ccccc3)noc12 ... 8.52
CCCc1c(OCCCOc2ccc(CC(=O)O)cc2)ccc2c(-c3ccccc3)noc12 ... 8.52

1: CCCc1c(OCCCCOc2ccc(C(C)(C)C(=O)O)cc2)ccc2c(-c3ccccc3)noc12
2: CCCc1c(OCCCOc2ccc(OCC(=O)O)cc2)ccc2c(-c3ccccc3)noc12
Query: Hi there, can you help? I need to know whether 1 or 2 has lower measured pEC50. Refer to your chosen entry by its label in the reply.
Result: 2
(2: 8.40, 1: 8.70)

###

# TARGET OR TEST SYSTEM: Peroxisome proliferator-activated receptor delta (Homo sapiens)
# Sequence (Q03181 whole entry): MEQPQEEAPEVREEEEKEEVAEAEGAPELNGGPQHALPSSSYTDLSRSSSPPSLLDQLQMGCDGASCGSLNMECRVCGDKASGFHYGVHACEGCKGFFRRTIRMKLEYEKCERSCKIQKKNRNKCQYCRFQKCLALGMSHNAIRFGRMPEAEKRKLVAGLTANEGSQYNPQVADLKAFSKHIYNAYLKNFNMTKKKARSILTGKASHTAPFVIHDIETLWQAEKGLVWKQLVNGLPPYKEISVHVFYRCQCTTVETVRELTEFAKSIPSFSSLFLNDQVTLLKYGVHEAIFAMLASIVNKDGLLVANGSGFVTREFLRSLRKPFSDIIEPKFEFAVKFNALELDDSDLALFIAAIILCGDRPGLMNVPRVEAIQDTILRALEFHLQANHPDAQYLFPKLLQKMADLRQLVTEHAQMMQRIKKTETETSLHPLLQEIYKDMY
READOUT TYPE: Ki (nM)

# count of solved cases: 5
CCCc1c(OCCCOc2ccccc2CC(=O)O)ccc2c(-c3ccccc3)noc12 ... 62
CCCc1c(OCCCSc2ccc(CC(=O)O)cc2Cl)ccc2c(-c3ccccc3)noc12 ... 3.7
CCCc1c(OCCCCOc2ccc(CCC(=O)O)cc2)ccc2c(-c3ccccc3)noc12 ... 37.5
CCCc1c(OCCCCOc2cccc(OCC(=O)O)c2)ccc2c(-c3ccccc3)noc12 ... 47
CCCc1c(OCCOc2ccc(CCC(=O)O)cc2)ccc2c(-c3ccccc3)noc12 ... 11

1: CCCc1c(OCCCCOc2cccc(CCC(=O)O)c2)ccc2c(-c3ccccc3)noc12
2: CCCc1c(OCCCOc2cccc(CC(=O)O)c2)ccc2c(-c3ccccc3)noc12
Query: # return whichever of 1 and 2 has the smaller Ki Output the label that corresponds to your choice.
Result: 2
